// endpoint pIC50 / system PI3Kα (Homo sapiens (Human))
The quantity pIC50 is defined as the negative base-10 logarithm of the molar concentration.

Below are worked cases with known answers.
{"compound structure string": "C[C@@H]1COCCN1c1nc(N2CCOC[C@@H]2C)nc2[nH]c(-c3cccc4c3CCN4)nc12", "target or test system": "PI3Kα (Homo sapiens (Human))", "quantitative result": 5.47}
{"compound structure string": "C[C@H]1COCCN1c1nc(N2CCOC[C@@H]2C)c2nc(-c3cccc4[nH]ccc34)[nH]c2n1", "target or test system": "PI3Kα (Homo sapiens (Human))", "quantitative result": 5.23}

Moving on to the next compound.
Specify pIC50 for c1cc(-c2nc3c(N4CCOCC4)nc(N4CCOCC4)nc3[nH]2)c2cc[nH]c2c1 and stop. 6.24
